Molecular target: CFTR-S549N (Homo sapiens, UniProt P13569, S549N)
Construct: expressed in transfected cells
Sequence (P13569 whole entry S549N): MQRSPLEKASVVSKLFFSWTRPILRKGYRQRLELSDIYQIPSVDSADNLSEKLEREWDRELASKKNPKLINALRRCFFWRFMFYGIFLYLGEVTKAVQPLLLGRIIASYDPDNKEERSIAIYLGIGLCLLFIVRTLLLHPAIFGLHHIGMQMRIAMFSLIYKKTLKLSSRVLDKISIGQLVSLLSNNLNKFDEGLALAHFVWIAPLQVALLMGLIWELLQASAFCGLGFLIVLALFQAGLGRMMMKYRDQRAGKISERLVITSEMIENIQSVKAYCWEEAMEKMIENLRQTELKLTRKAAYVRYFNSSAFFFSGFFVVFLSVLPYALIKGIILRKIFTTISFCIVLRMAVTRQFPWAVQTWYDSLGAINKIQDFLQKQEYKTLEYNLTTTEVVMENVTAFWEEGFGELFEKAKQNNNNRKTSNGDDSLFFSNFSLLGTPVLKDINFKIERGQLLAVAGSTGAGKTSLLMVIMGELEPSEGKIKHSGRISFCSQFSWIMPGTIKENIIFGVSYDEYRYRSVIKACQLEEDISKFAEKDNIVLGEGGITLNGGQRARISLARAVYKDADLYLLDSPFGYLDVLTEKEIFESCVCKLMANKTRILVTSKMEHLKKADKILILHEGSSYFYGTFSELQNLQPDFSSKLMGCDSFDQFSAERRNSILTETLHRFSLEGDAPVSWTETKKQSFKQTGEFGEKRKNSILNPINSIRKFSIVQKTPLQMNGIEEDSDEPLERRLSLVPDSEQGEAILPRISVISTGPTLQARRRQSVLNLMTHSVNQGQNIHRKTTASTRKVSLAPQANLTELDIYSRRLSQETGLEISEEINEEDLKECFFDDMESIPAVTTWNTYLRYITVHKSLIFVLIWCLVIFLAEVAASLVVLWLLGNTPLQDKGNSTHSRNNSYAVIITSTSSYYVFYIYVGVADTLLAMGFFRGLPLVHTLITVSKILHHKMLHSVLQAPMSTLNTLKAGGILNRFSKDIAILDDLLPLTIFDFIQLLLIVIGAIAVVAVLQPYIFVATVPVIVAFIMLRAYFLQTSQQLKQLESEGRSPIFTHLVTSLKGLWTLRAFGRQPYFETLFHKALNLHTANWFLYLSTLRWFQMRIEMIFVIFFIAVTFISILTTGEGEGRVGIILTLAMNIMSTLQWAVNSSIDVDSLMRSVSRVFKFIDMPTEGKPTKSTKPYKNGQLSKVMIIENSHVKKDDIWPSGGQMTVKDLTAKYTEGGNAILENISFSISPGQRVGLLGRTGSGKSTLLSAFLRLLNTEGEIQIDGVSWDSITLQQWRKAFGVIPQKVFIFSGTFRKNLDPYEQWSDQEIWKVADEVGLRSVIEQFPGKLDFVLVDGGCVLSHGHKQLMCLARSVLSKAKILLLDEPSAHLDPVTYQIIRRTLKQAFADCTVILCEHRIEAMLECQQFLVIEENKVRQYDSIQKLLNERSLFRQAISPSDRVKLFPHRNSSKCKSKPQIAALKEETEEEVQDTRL
Experiment: YFP-halide influx assay for the CFTR-S549N
Type: cell-based
Each record gets a class by EC50: 0 (below 200 nM), 1 (200 nM to below 1000 nM), 2 (1000 nM or more)

Solved entries:
>>> answer_label("C[C@H](O)C(=O)Nc1sc(S(=O)(=O)c2ccc(OC(F)(F)F)cc2)cc1C(N)=O [Compound 331]")
1
>>> answer_label("COc1cc(C)cc(S(=O)(=O)c2cc(C(N)=O)c(NC(=O)C(C)(C)O)s2)c1 [Compound 416]")
2
>>> answer_label("CC(C)(O)C(=O)Nc1sc(S(=O)(=O)c2nc(Cl)ccc2C(F)(F)F)cc1C(N)=O [Compound 424]")
1

Category of CC(C)(O)C(=O)Nc1sc(S(=O)(=O)c2cc(Cl)ncc2C#N)cc1C(N)=O [Compound 432] , please.
2

Category of CC(C)(O)C(=O)Nc1sc(S(=O)(=O)c2ccc(OC(F)F)cc2)cc1C(N)=O [Compound 380] , please.
1

Category of CC(C)(O)C(=O)Nc1sc(S(=O)(=O)c2nc(C(F)(F)F)ccc2C(F)(F)F)cc1C(N)=O [Compound 412] , please.
0

Category of CC(C)(O)C(=O)Nc1sc(S(=O)(=O)c2ccc(C(F)(F)F)nc2)cc1C(N)=O [Compound 389] , please.
1

Origin of the recorded values: patent US9382254B2
